// data source = patent US20260092074A1

biological target: human CYP11B2 (Homo sapiens, UniProt P19099); assay: Inhibition of hCYP11B2 in transfected V79 cells; conditions: hamster V79 cells expressing human CYP11B2; substrate 11-deoxycorticosterone 200 nM
Sequence (P19099 25-503): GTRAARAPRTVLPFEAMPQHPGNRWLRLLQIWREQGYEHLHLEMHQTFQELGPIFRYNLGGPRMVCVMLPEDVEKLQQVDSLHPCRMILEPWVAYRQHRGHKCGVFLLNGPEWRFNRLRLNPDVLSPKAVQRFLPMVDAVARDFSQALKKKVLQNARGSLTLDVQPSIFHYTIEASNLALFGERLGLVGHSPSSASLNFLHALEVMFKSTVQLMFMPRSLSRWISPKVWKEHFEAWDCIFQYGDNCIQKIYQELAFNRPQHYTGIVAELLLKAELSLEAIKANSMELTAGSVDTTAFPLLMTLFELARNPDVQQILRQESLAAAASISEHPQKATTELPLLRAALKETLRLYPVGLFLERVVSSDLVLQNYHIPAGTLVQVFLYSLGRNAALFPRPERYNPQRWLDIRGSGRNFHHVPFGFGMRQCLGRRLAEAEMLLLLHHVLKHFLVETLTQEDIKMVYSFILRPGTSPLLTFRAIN
Readout label: log10 of IC50 (log10 of the value in nM)
A difference of one corresponds to tenfold IC50; all values are log10 with IC50 in nM.

# Structure smiles, log10 of IC50
measured = [
    ("N#Cc1ccc(-c2cncc3c2CCN3C(=O)c2cccc(F)c2)cc1", 0.85),
    ("N#Cc1ccc(S(=O)(=O)N2CCSc3c(-c4ccc5nc[nH]c5c4)cncc32)cc1", 1.43),
    ("N#Cc1ccc2cc(-c3cncc4c3OCCN4C(=O)C3CN(Cc4cccc(F)c4)C3)[nH]c2c1", 1.45),
    ("N#Cc1ccc(-c2cncc3c2SCCN3S(=O)(=O)C2CN(C(=O)c3cccc(C#N)c3)C2)cc1", 1.15),
    ("N#Cc1ccc(-c2cncc3c2CCN3C(=O)c2ccc(CBr)cc2)cc1", 1.40),
    ("N#Cc1ccc(-c2cncc3c2OCCN3C(=O)c2ccc(F)cc2)cc1", 1.36),
]

Quick note, log10 of IC50 for `N#Cc1ccc(-c2cncc3c2SCCN3Cc2cccc(F)c2)cc1` landed at 2.65

The compound listed as `COc1cccc(S(=O)(=O)N2CC(C(=O)N3CCOc4c(-c5ccc(C#N)cc5)cncc43)C2)c1` shows log10 of IC50 equal to 0.65

The compound `N#Cc1ccc(-c2cncc3c2CCN3C(=O)c2cccc(C(F)(F)F)c2)cc1` showed log10 of IC50 equal to 0.85
